The measured values listed here are drawn from ChEMBL document CHEMBL4619718.

Some compounds, each annotated with its measured inhibition.
target: Insulin-like growth factor 1 receptor (Homo sapiens); experiment: Inhibition of IGF1R (unknown origin) at 10 uM relative to control
Returns: string containing the numeric result and its unit.

Examples with answers:
CC(C)C[C@H]1CNC(=N)N1C[C@H](Cc1ccccc1)NS(=O)(=O)c1ccccc1; 8.3%
N=C1NC[C@H](CC2CCCCC2)N1C[C@H](Cc1ccc(O)cc1)NS(=O)(=O)c1ccccc1Cl; 16.1%
N=C1NC[C@H](CC2CCCCC2)N1C[C@H](Cc1ccccc1)NS(=O)(=O)c1ccccc1; 11.4%

Cc1ccc(S(=O)(=O)N[C@@H](Cc2ccc(O)cc2)CN2C(=N)NC[C@@H]2CC2CCCCC2)cc1 has a reported inhibition of 16.1%

CC(C)C[C@H]1CNC(=N)N1C[C@H](Cc1ccc(O)cc1)NS(=O)(=O)c1ccccc1Cl has a reported inhibition of 15.9%

Cc1ccc(S(=O)(=O)N[C@@H](Cc2ccc(O)cc2)CN2C(=N)NC[C@@H]2CC(C)C)cc1 has a reported inhibition of 7.8%

====

// each record: one item and its pIC50 for Serine/threonine-protein kinase LMTK3 (Homo sapiens, UniProt Q96Q04)
Please report pIC50 as the negative decimal logarithm of the molar concentration, giving only the number.

Examples with answers:
N=C1NC[C@H](CC2CCCCC2)N1C[C@H](Cc1ccccc1)NS(=O)(=O)c1ccccc1; 5.79
CC(C)C[C@H]1CNC(=N)N1C[C@H](Cc1ccccc1)NS(=O)(=O)c1ccccc1; 6.18
CC(C)C[C@H]1CNC(=N)N1C[C@H](Cc1ccc(O)cc1)NS(=O)(=O)c1ccccc1Cl; 6.68

N=C1NC[C@H](CC2CCCCC2)N1C[C@H](Cc1ccc(O)cc1)NS(=O)(=O)c1ccccc1Cl has a reported pIC50 of 6.65

Cc1ccc(S(=O)(=O)N[C@@H](Cc2ccc(O)cc2)CN2C(=N)NC[C@@H]2CC(C)C)cc1 has a reported pIC50 of 6.51
